All values here come from PubChem BioAssay (NCI).

Test system: A498 renal
Experiment: NCI-60 one-dose screen, 48 h (100 = growth as untreated, 0 = no growth, -100 = all killed)
Settings: 10 µM unless noted
Description: Growth inhibition of the A498 human tumor cell line is measured as a screen for anti-cancer activity. Cells are grown in 96 well plates and exposed to the test compound for 48 hours. Compounds are tested at a single concentration, which is 10^-5 M for most compounds. The reported endpoint is percent growth (GI% or GIPRCNT), where numbers from 0 - 100% represent growth inhibition, and numbers from -100% - 0 represent cell death. For example, a value of 40 represents 60% growth inhibition. […]
Compounds without any hit were thinned out: in the full panel of roughly 83,000, 20% have a hit.
ASSAY ENDPOINT: growth (%)
Note: unit % is implicit; provide only the numeric part.

Please review the entries below; each comes with its answer.
>  <COMPOUND>
COc1cc2c(cc1OCCCOc1ccc(-c3cc4ccccc4c4ccccc34)cc1)N=C[C@@H]1CCCN1C2=O

>  <UNIT ANNOTATION>
%

>  <growth>
-82.8

$$$$
>  <COMPOUND>
O=C1CC(C(F)(F)F)=NN1C(=O)c1nn(-c2ccc(Cl)cc2)cc1O

>  <UNIT ANNOTATION>
%

>  <growth>
77.8

$$$$
>  <COMPOUND>
O=C1Cc2cc(CCN3CCN(CCOCCO)CC3)c(Cl)cc2N1Cc1ccc(-c2ccccc2-c2nn[nH]n2)cc1

>  <UNIT ANNOTATION>
%

>  <growth>
59.9

$$$$
>  <COMPOUND>
O=C(CCc1nnc(Cn2cncn2)o1)c1nc2ccccc2[nH]1

>  <UNIT ANNOTATION>
%

>  <growth>
96

$$$$
>  <COMPOUND>
CCCC[N+](CCCC)=c1ccc2nc3c(C)cc(N(CC)CC)cc3sc-2c1

>  <UNIT ANNOTATION>
%

>  <growth>
-5.54

$$$$
>  <COMPOUND>
CCOC(=O)C1=NN(c2ccc(Cl)cc2)C2C3N(c4ccc(Cl)cc4)N=C(C(=O)OCC)N3c3ccccc3N12 (centres undefined)

>  <UNIT ANNOTATION>
%

>  <growth>
131

$$$$
>  <COMPOUND>
COc1cccc(-c2nnc(N)o2)c1

>  <UNIT ANNOTATION>
%

>  <growth>
97.8

$$$$
>  <COMPOUND>
O=C(Nc1nc2ccccc2s1)c1cc(-c2ccc(F)cc2)n2nc(-c3ccccc3)cc2n1

>  <UNIT ANNOTATION>
%

>  <growth>
-9.36

$$$$

Request: Please look up its growth: CCCCCCCCCCCCCCCCCc1nccn1CCO
Result: 72.5

Request: Now consider OCc1nnn(-c2ccccc2)c1CO .
Result: 101

Request: Similarly, CC(C)COCC(CN(Cc1ccccc1)c1ccccc1)N1CCCC1 (centres undefined) ?
Result: 83.3

---

test system: OVCAR-8 ovarian; experiment: NCI-60 one-dose screen, 48 h (100 = growth as untreated, 0 = no growth, -100 = all killed); conditions: 10 µM unless noted
The panel holds about 83,000 compounds, 20% with a hit somewhere; the sample as a whole holds those more often.
Catalogue of compounds with associated growth
The answer is to be given in %; state only the numeric part.

As a guide, the following entries are already answered.
>  <COMPOUND>
CN(CC(=O)Nc1nc2ccccc2[nH]1)S(=O)(=O)c1ccc(Cl)cc1

>  <growth / %>
95.2

$$$$
>  <COMPOUND>
O=C(COC(=O)[C@H](C[Se][Se]C[C@H](NC(=O)c1ccc(Br)cc1F)C(=O)OCC(=O)c1ccc(F)cc1)NC(=O)c1ccc(Br)cc1F)c1ccc(F)cc1

>  <growth / %>
-100

$$$$
>  <COMPOUND>
Fc1ccc(-c2nnc(/C=C/c3cn(-c4ccccc4)nc3-c3ccccc3)o2)cc1

>  <growth / %>
98.2

$$$$
>  <COMPOUND>
COc1ccc2c3c(c(OCCCN(C)C)nc2c1)-c1ccc(Cl)cc1C3=O

>  <growth / %>
-38.6

$$$$

Request: Give recorded growth with OVCAR-8 ovarian for the following compound: COc1ccc2c(c1)C(=O)/C(=C/c1cccc(OCC(=O)c3ccccc3)c1)CC2
Result: 78.6

Request: Another compound to check: COc1ccc(COC(C)=O)cc1
Result: 106

Request: Another: O=[N+]([O-])c1ccc(N/N=C/c2c(O)ccc3ccccc23)nc1
Result: 34.9

Request: Would you kindly repeat that for CCN(CC)c1ccc(C(O)C2=CC(=O)c3ccccc3C2=O)cc1 (stereo not drawn) ?
Result: -3.87
